Data origin, for the record: paper PMC2756588

biological target: Bem1-1, P29366; experiment: SPOT array; details: median of control spots 4282
Sequence (P29366 55-141): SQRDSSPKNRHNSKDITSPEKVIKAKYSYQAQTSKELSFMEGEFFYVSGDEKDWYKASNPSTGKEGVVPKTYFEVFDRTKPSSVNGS
Quick list: SPOT intensity per entry.
valueType: SPOT intensity

binder	readoutValue
RMVRRRPLRVQFSAR	6
VATSTSPKLPPRGKQ	6
VQKRKLPLPGSIASA	0
FYHRPAPKPPVTKKV	0
SKIRPTPRKPSRMAT	6
GRSRLFPHSPLGRSS	0
ITHRLRISIPGITGR	0
